assay: Toxicity liver stage against HepG2, at 10uM; type: cell-based; parameters: test concentration 10 uM, cell line HepG2-A16-CD81EGFP; conditions: human, HepG2-A16-CD81EGFP cells; read-out: INHIBITION

MOLECULE: Cc1cc(N2CCN(C(=O)c3cnn(C(C)C)c3)CC2)nc(N)n1
cytotoxicity at 10 µM, %: -2.82
--
MOLECULE: Cc1csc2cc(C(=O)NC3CC3)cnc12
cytotoxicity at 10 µM, %: -0.697
--
MOLECULE: CCc1ccc(CN(C)c2cc(COC)nc3ccnn23)cc1
cytotoxicity at 10 µM, %: 3.52
--
MOLECULE: COCC1CN(C(=O)C2=CCCC2)Cc2cnn(CC3CC3)c21 (stereo unspecified)
cytotoxicity at 10 µM, %: 9.61
--
MOLECULE: Cc1cc(C(=O)N2CC[C@H]3C[C@H](c4ccncn4)O[C@@H]3C2)no1
cytotoxicity at 10 µM, %: -78
--
MOLECULE: CCc1cc(NCCc2cnccn2)n2nc(C)c(C)c2n1
cytotoxicity at 10 µM, %: 5.18
--
MOLECULE: CC(=O)N1C[C@@H](c2ccsc2)[C@@H]2CN(Cc3ccccc3)CC[C@@H]21
cytotoxicity at 10 µM, %: 6.76
--
MOLECULE: CN1CCCC(c2cncc(C(=O)NCc3ccccc3Cl)n2)C1 (stereo unspecified)
cytotoxicity at 10 µM, %: -2.82
--
MOLECULE: Cc1nc(CN2CCOC(CN(C)c3cccnn3)C2)cs1 (stereo unspecified)
cytotoxicity at 10 µM, %: 0.938
--
MOLECULE: CC(C)CCCNC(=O)Nc1ccc(Cl)c(C(N)=O)c1
cytotoxicity at 10 µM, %: -0.252
--
MOLECULE: CCn1nc(C)c2c1cnn2CCNS(=O)(=O)c1cccs1
cytotoxicity at 10 µM, %: 4.51
